Data provenance is patent US9901097B2.

system: Botrytis cinerea; assay: Sterilization test (growth inhibition of Botrytis cinerea in potato dextrose medium, 96-well microplate, turbidity 405 nm); format: cell-based; conditions: Example 1 (Tables 1-5); drug II alone 10 ppm
Measured Growth inhibition rate accompanies every entry in the list below.
Answer with a number only, understood to be in %.

Cc1c(Cl)cc(-c2ccc(=O)[nH]n2)cc1Cl ... 0
CCCCCCCCc1c(CC)nc2ncnn2c1N ... 0
O=C(NCc1ncc(C(F)(F)F)cc1Cl)c1c(Cl)cccc1Cl [Drug 11, Fluopicolide] ... 6

Now, please, on to the next compound.
Record `CCCOc1nc2ccc(I)cc2c(=O)n1CCC` . Reported Growth inhibition rate: 0

###

tested on: Botrytis cinerea; assay: Sterilization test (growth inhibition of Botrytis cinerea in potato dextrose medium, 96-well microplate, turbidity 405 nm); type: cell-based; settings: Botrytis cinerea; Example 1 (Tables 1-5); drug II alone 0.08 ppm; read-out: Growth inhibition rate
Tick MET if inhibition at 0.08 ppm is 30% or greater. Tick NOT MET if inhibition at 0.08 ppm is less than 30%.

Use the examples below as a reference point.
CC(C)(C)C(O)(CCc1ccc(Cl)cc1)Cn1cncn1 (stereo not shown) [Drug 22, Tebuconazole] ... MET
CCO[PH](=O)O [Drug 13, Fosetyl] ... NOT MET
O=C(NCCc1ncc(C(F)(F)F)cc1Cl)c1ccccc1C(F)(F)F [Drug 30, Fluopyram] ... NOT MET
CO/N=C(/C(=O)OC)c1ccccc1COc1ccccc1C [Drug 28, Kresoxim-methyl] ... NOT MET
N#Cc1c(Cl)c(Cl)c(Cl)c(C#N)c1Cl [Drug 25, Chlorothalonil] ... NOT MET

Hi, just wondering whether CON=C(C(=O)OC)c1ccccc1CON=C(C)c1cccc(C(F)(F)F)c1 [Drug 26, Trifloxystrobin] shows inhibition at 0.08 ppm of 30% or higher. MET

###

Catalogue of inhibition at 10 ppm values
test system: Botrytis cinerea; experiment: Sterilization test (growth inhibition of Botrytis cinerea in potato dextrose medium, 96-well microplate, turbidity 405 nm); format: cell-based; conditions: Botrytis cinerea; Example 2 (Tables 6-8); drug II alone 10 ppm; read-out: Growth inhibition rate
# value in %; strip the unit string

CC(C)OC(=O)C(C(=O)OC(C)C)=C1SCCS1 ... 10
CCOc1ccc(C(C)(C)COCc2cccc(Oc3ccccc3)c2)cc1 ... 4

# molecule Cc1nc(C(F)(F)F)c(C(=O)Nc2c(Br)cc(OC(F)(F)F)cc2Br)s1 [Drug 56, Thifluzamide] ; its inhibition at 10 ppm = 28

Summary for this molecule, CC[S+]([O-])c1c(C#N)nn(-c2c(Cl)cc(C(F)(F)F)cc2Cl)c1N (stereo not shown) : inhibition at 10 ppm is 2
